System: SW620 colon cancer cells
experiment summary: MTT viability assay, SW620
Type: cell-based, human
assay context: Homo sapiens, SW-620; 0.625-20 µM, 48 h, MTT; read-out: EC50 (SW620), cell viability
readout name: pEC50
Give bare numbers, as −log10 of the molar value.

The compound COc1ccc(Cn2c(SCC(=O)Nc3nc4ccc(C(F)(F)F)cc4s3)nccc2=O)cc1 [Compound 20] showed pEC50 equal to 5.52

* * *

tested target: CK1δ wild type (GST-CK1δ) (Homo sapiens)
Sequence (P48730 whole entry): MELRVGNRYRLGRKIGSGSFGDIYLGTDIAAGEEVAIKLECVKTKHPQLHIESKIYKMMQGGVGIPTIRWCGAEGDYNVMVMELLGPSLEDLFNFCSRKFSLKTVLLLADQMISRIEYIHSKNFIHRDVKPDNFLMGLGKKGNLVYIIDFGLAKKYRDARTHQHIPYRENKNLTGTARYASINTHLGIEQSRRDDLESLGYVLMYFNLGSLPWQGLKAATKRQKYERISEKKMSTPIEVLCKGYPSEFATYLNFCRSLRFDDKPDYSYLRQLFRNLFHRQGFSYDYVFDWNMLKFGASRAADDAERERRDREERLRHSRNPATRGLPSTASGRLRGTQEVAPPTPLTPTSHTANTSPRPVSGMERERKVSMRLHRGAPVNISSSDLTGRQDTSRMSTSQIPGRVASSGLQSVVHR
experiment summary: in vitro kinase assay, GST-CK1δ wild type
Format: biochemical
assay context: 10 µM inhibitor, initial screening
readout name: Kinase activity of CK1δ in presence of inhibitor

Answered cases to consult:
[
  {
    "molecular string": "O=C(CSc1nccc(=O)n1-c1ccccc1)Nc1nc2ccc(C(F)(F)F)cc2s1",
    "result": "strongly inhibited"
  },
  {
    "molecular string": "COc1ccc(OC)c(-n2c(SCC(=O)Nc3nc4ccc(C(F)(F)F)cc4s3)nccc2=O)c1",
    "result": "strongly inhibited"
  },
  {
    "molecular string": "COc1cc(OC)cc(-n2c(SCC(=O)Nc3nc4ccc(C(F)(F)F)cc4s3)nccc2=O)c1",
    "result": "strongly inhibited"
  },
  {
    "molecular string": "O=C(CSc1nccc(=O)n1Cc1ccc(C(F)(F)F)cc1)Nc1nc2ccc(C(F)(F)F)cc2s1",
    "result": "strongly inhibited"
  },
  {
    "molecular string": "COc1ccc(-n2c(SCC(=O)Nc3nc4ccc(C(F)(F)F)cc4s3)nccc2=O)c(OC)c1",
    "result": "strongly inhibited"
  },
  {
    "molecular string": "O=C(CSc1nccc(=O)n1Cc1ccccc1F)Nc1nc2ccc(C(F)(F)F)cc2s1",
    "result": "strongly inhibited"
  }
]

// next item, Kinase activity of CK1δ in presence of inhibitor requested
The reported value for "COc1ccc(Cn2c(SCC(=O)Nc3nc4ccc(C(F)(F)F)cc4s3)nccc2=O)cc1" in terms of Kinase activity of CK1δ in presence of inhibitor is strongly inhibited
